The reported numbers originate from ChEMBL document CHEMBL3507680.

Exercise: for every item that follows, state its recorded cytotoxicity at 70.5 h.
# assay-notes: Human HepG2 cell viability assay in 384 well format
# Assay type: toxicity, cell-based
# Parameters: dose 125 nL, time 70.5 hour; concentration not given beside the values
# condition-description: HepG2 cells, read-out: Inhibition

compound	cytotoxicity at 70.5 h
O=C(NCc1ccccc1CN1CCCCC1)Nc1nncs1	-10.2%
CC(=O)Nc1cc(C(C)(C)C)sc1C#N	-3.4%
CS(=O)(=O)c1ccc(C(=O)NCc2nc3cc(F)ccc3[nH]2)cc1	0.751%

Batch: cytotoxicity at 70.5 h for all items listed.
1. Cn1cncc1CN1CCC2(CC1)COCCN(S(C)(=O)=O)C2
2. CCCc1noc2ncc(C(=O)N3CCCC3c3cnn(C)c3)cc12 (centres undefined)
3. CNC(=O)CS(=O)(=O)C1CCN(S(=O)(=O)c2ccccc2Cl)CC1
4. Cn1cc(C2CCCN2C(=O)COCCc2ccccc2)cn1 (centres undefined)

[out]
1. -8.74%
2. -6.19%
3. 23.7%
4. -8.67%
